The measurements presented in this section are drawn from patent US20170015649A1.

System: Mediterranean Fruitfly (Ceratitis capitata)
assay-notes: Activity against Mediterranean fruitfly, eggs in microtiterplates
Assay type: in vivo
condition-description: 144 h, eggs sprayed with 5 μl test solution, 6 days
endpoint-name: mortality at 2500 ppm

Field: example entries. Status: answers known.
molecule="CCS(C)=NC(=O)c1cc(Cl)cc(C)c1NC(=O)c1cc(Br)nn1-c1ncccc1Cl (stereo not drawn)" observed_measurement="> 75%"
molecule="CCS(C)=NC(=O)c1cc(I)cc(C)c1NC(=O)c1cc(C(F)(F)F)nn1-c1ncccc1Cl (stereo not drawn)" observed_measurement="> 75%"
molecule=Cc1cc(Cl)cc(C(=O)N=S(C)C)c1NC(=O)c1cc(C(F)(F)F)nn1-c1ncccc1Cl observed_measurement="> 75%"

*Q* Bench note: what mortality at 2500 ppm did Cc1cc(Cl)cc(C(=O)N=S2(=O)CCCCC2)c1CC(=O)c1cc(Br)nn1-c1ccccc1Cl show?
*A* > 75%

*Q* Next molecule up: Cc1cc(C#N)cc(C(=O)N=S(C)C)c1NC(=O)c1cc(C(F)(F)F)nn1-c1ncccc1Cl
*A* > 75%

*Q* # repeat for Cc1cc(I)cc(C(=O)N=S(C)C)c1NC(=O)c1cc(Br)nn1-c1ncccc1Cl
*A* > 75%

*Q* What do you get for CCS(C)=NC(=O)c1cc(I)cc(C)c1NC(=O)c1cc(Br)nn1-c1ncccc1Cl (stereo not drawn) ?
*A* > 75%

*Q* Likewise for Cc1cc(I)cc(C(=O)N=S(C)C)c1NC(=O)c1cc(C(F)(F)F)nn1-c1ncccc1Cl ?
*A* > 75%

*Q* Field entry: CCS(C)=NC(=O)c1cccc(C)c1NC(=O)c1cc(Br)nn1-c1ncccc1Cl (stereo not drawn)
*A* > 75%

*Q* How about Cc1cccc(C(=O)N=S(C)C)c1NC(=O)c1cc(C(F)(F)F)nn1-c1ncccc1Cl ?
*A* > 75%

*Q* // repeat for CCS(C)=NC(=O)c1cc(Cl)cc(C)c1NC(=O)c1cc(C(F)(F)F)nn1-c1ncccc1Cl (stereo not drawn) and report
*A* > 75%

*Q* Thanks! And CCS(C)=NC(=O)c1cccc(C)c1NC(=O)c1cc(C(F)(F)F)nn1-c1ncccc1Cl (stereo not drawn) ?
*A* > 75%

----------
Tested on: Silverleaf Whitefly (Bemisia argentifolii)
assay-notes: Activity against silverleaf whitefly, cotton cotyledon dip
Assay type: in vivo
condition-description: 72 h, cotyledons dipped, adults, 3 days after treatment
Listed next: entries and their corresponding mortality at 300 ppm.

compound="CCS(C)=NC(=O)c1cc(I)cc(C)c1NC(=O)c1cc(C(F)(F)F)nn1-c1ncccc1Cl (stereo not shown)" test_target="Silverleaf Whitefly (Bemisia argentifolii)" endpoint_name="mortality at 300 ppm" observed_measurement="> 90%"

*Q* Consider the compound CCS(CC)=NC(=O)c1cc(Cl)cc(C)c1NC(=O)c1cc(Br)nn1-c1ncccc1Cl and give its measured mortality at 300 ppm.
*A* > 90%

*Q* Also need CCS(C)=NC(=O)c1cc(Cl)cc(C)c1NC(=O)c1cc(Br)nn1-c1ncccc1Cl (stereo not shown) , thanks.
*A* > 90%

*Q* Cc1cc(I)cc(C(=O)N=S(C)C)c1NC(=O)c1cc(Br)nn1-c1ncccc1Cl , same question.
*A* > 90%
